# SUBJECT_OF_TEST: T1, human RAGE expressed on CHO cells (human, UniProt Q15109 23-404)
# T1 construct: whole, on cells; also called CHO-RAGE cells; cell surface expressed human RAGE
# ASSAY_DETAILS: cell ELISA on CHO-RAGE cells, A450 corrected for control CHO cells
Values of EC50 strictly less than 0.1 µg/mL map to fulfilled, and values of at least 0.1 µg/mL map to not fulfilled.

For orientation, consider the following solved cases.
10D8 scFv-Fc fusion (Fc fusion, also called 10D8 (b); not shown: wild-type human IgG Fc (hinge and constant domains)) DIQMTQSPSSLSASVGDKVTITCRASQDVGFYVNWFQQKPGKAPRRLIYRATNLADGVPSRFSGSRSGTDFTLTISSLQPEDFATYYCLEFDEHPLTFGGGTKVEIKDGGGSGNGGSGGGGSSEVQLVESGGELVQPGGSLRLSCAASGFTFNNYWMTWVRQAPGKGLEWVASIDNSGDNTYYPDSVKDRFTISRDNAKNSLYLQMNSLRAEDTAVYYCARGGDITTGFDYWGQGTLVTVSS    fulfilled
1G6 scFv-Fc fusion (Fc fusion, not shown: wild-type human IgG Fc (hinge and constant domains)) DIQMTQSPSSLSASVGDRVTITCRASQDVGFYVNWFQQKPGKAPRRLIYRATNLADGVPSRFSGSRSGTDFTLTISSLQPEDFATYYCLEFDEHPLTFGGGTKVEIKDGGGSGGGGSGGGGSSEVQLVESGGGLVQPGGSLRLSCAASGFTFNNYWMTWVRQAPGKGLEWVASIDNSGDNTYYPDSVKDRFTISRDNAKNSLYLQMNSLRAEDTAVYYCARGGDITNGFDYWGQGTLVTVSS    not fulfilled
3B2 scFv-Fc fusion (Fc fusion, not shown: wild-type human IgG Fc (hinge and constant domains)) DIQMTQSPSSLSASVGDRVTITCRASQDVGIYVNWFQQKPGKAPRRLIYRATNLADGVPSRFSGSRSGTDFTLTISSLQPEDFATYYCLEFDEHPLTFGGGTKVEIKDGGGSGGGGSGGGGSSEVQLVESGGGLVQPGGSLRLSCAASGFTFNNYWMTWVRQAPGKGLEWVASIDNSGDNTYYPDSVKDRFTISRDNAKNSLYLQMNSLRAEDTAVYYCARGGDILVGLDYWGQGTLVTVSS    fulfilled
3G5 scFv-Fc fusion (Fc fusion, Substitutions derived from the printed HCDR3; not shown: wild-type human IgG Fc (hinge and constant domains)) DIQMTQSPSSLSASVGDRVTITCRASQDVGIYVNWFQQKPGKAPRRLIYRATNLADGVPSRFSGSRSGTDFTLTISSLQPEDFATYYCLEFDEHPLTFGGGTKVEIKDGGGSGGGGSGGGGSSEVQLVESGGGLVQPGGSLRLSCAASGFTFNNYWMTWVRQAPGKGLEWVASIDNSGDNTYYPDSVKDRFTISRDNAKNSLYLQMNSLRAEDTAVYYCARGGDILDSLPYWGQGTLVTVSS    fulfilled

Query :: # strict comparison: is reported EC50 < 0.1 µg/mL? input = 6C2 scFv-Fc fusion (Fc fusion, not shown: wild-type human IgG Fc (hinge and constant domains)) DIQMTQSPSSLSASVGDRVTITCRASQDVGIYVNWFQQKPGKAPRRLIYRATNLADGVPSRFSGSRSGTDFTLTISSLQPEDFATYYCLEFDEHPLTFGGGTKVEIKDGGGSGGGGSGGGGSSEVQLVESGGGLVQPGGSLRLSCAASGFTFNNYWMTWVRQAPGKGLEWVASIDNSGDNTYYPDSVKDRFTISRDNAKNSLYLQMNSLRAEDTAVYYCARGGDIKVSLDRWGQGTLVTVSS
Result :: fulfilled

Query :: What about 6G4 scFv-Fc fusion (Fc fusion, Assayed separately; fold gain against the M4 value of the ribosome display set; not shown: wild-type human IgG Fc (hinge and constant domains)) DIQMTQSPSSLSASVGDRVTITCRASQDVGIYVNWFQQKPGKAPRRLIYRATNLADGVPSRFSGSRSGTDFTLTISSLQPEDFATYYCLEFDEHPLTFGGGTKVEIKDGGGSGGGGSGGGGSSEVQLVESGGGLVQPGGSLRLSCAASGFTFNNYWMTWVRQAPGKGLEWVASIDNSGDNTYYPDSVKDRFTISRDNAKNSLYLQMNSLRAEDTAVYYCARGGDILDSLHFWGQGTLVTVSS ?
Result :: not fulfilled

Query :: What about 3D2 scFv-Fc fusion (Fc fusion, not shown: wild-type human IgG Fc (hinge and constant domains)) DIQMTQSPSSLSASVGDRVTITCRASQDVGIYVNWFQQKPGKAPRRLIYRATNLADGVPSRFSGSRSGTDFTLTISSLQPEDFATYYCLEFDEHPLTFGGGTKVEIKDGGGSGGGGSGGGGSSEVQLVESGGGLVQPGGSLRLSCAASGFTFNNYWMTWVRQAPGKGLEWVASIDNSGDNTYYPDSVKDRFTISRDNAKNSLYLQMNSLRAEDTAVYYCARGGDIRVSLDHWGQGTLVTVSS ?
Result :: not fulfilled

Query :: What about 3A6 scFv-Fc fusion (Fc fusion, not shown: wild-type human IgG Fc (hinge and constant domains)) DIQMTQSPSSLSASVGDRVTITCRASQDVGIYVNWFQQKPGKAPRRLIYRATNLADGVPSRFSGSRSGTDFTLTISSLQPEDFATYYCLEFDEHPLTFGGGTKVEIKDGGGSGGGGSGGGGSSEVQLVESGGGLVQPGGSLRLSCAASGFTFNNYWMTWVRQAPGKGLEWVASIDNSGDNTYYPDSVKDRFTISRDNAKNSLYLQMNSLRAEDTAVYYCARGGDILVSLDVWGQGTLVTVSS ?
Result :: fulfilled

Query :: What about 6C3 scFv-Fc fusion (Fc fusion, not shown: wild-type human IgG Fc (hinge and constant domains)) DIQMTQSPSSLSASVGDRVTITCRASQDVGIYVNWFQQKPGKAPRRLIYRATNLADGVPSRFSGSRSGTDFTLTISSLQPEDFATYYCLEFDEHPLTFGGGTKVEIKDGGGSGGGGSGGGGSSEVQLVESGGGLVQPGGSLRLSCAASGFTFNNYWMTWVRQAPGKGLEWVASIDNSGDNTYYPDSVKDRFTISRDNAKNSLYLQMNSLRAEDTAVYYCARGGDITLGLDVWGQGTLVTVSS ?
Result :: not fulfilled

Query :: What about 8G9 scFv-Fc fusion (Fc fusion, not shown: wild-type human IgG Fc (hinge and constant domains)) DIQMTQSPSSLSASVGDRVTITCRASQDVGIYVNWFQQKPGKAPRRLIYRATNLADGVPSRFSGSRSGTDFTLTISSLQPEDFATYYCLEFDEHPLTFGGGTKVEIKDGGGSGGGGSGGGGSSEVQLVESGGGLVQPGSSLRLSCAASGFTFNNYWMTWVRQAPGKGLEWVASIDNSGDNTYYPDSVKDRFTISRDNAKNSLYLQMNSLRAEDTAVYYCARGGDITTGLDYWGQGTLVTVSS ?
Result :: fulfilled
